protocol.summary: Cytotoxicity against human Hep3B cells assessed as induction of cell death incubated for 2 days by MTT assay
Format: functional, cell-based, Hep 3B2
condition.context: 48 h
Could you mark each record true if its IC50 falls strictly under 10 µM, and false if it equals or exceeds it?

Illustrative cases are given below, each with its answer.
CO[C@@H]1C=C2[C@@H]3CC(C)(C)CC[C@]3(CO)[C@@H](O)C[C@@]2(C)[C@]2(C)CC[C@H]3[C@](C)(CO)[C@@H](O[C@@H]4O[C@H](C)[C@H](O)[C@H](O)[C@H]4O)CC[C@]3(C)[C@@H]12 = false
C[C@H]1O[C@@H](O[C@H]2CC[C@@]3(C)[C@@H](CC[C@]4(C)[C@@H]3C=CC3=C5CC(C)(C)CC[C@]5(CO)[C@H](O)C[C@]34C)[C@]2(C)CO)[C@H](O)[C@@H](O)[C@H]1O = false
CC(=O)OC[C@@]1(C)[C@@H]2CC[C@]3(C)[C@H](C=C[C@]45OC[C@@]6(CCC(C)(C)C[C@H]64)[C@@H](O)C[C@]53C)[C@@]2(C)CC[C@@H]1O[C@@H]1O[C@H](C)[C@H](O)[C@H](O[C@@H]2O[C@H](CO)[C@@H](O)[C@H](O)[C@H]2O)[C@H]1O = false

Next:
A record lists `C[C@H]1O[C@@H](O[C@H]2CC[C@@]3(C)[C@@H](CC[C@]4(C)[C@@H]3C=C[C@]35OC[C@@]6(CCC(C)(C)C[C@H]63)[C@@H](O)C[C@]54C)[C@]2(C)CO)[C@H](O)[C@@H](O[C@@H]2O[C@H](CO)[C@@H](O)[C@H](O)[C@H]2O)[C@H]1O` . Is its IC50 below 10 µM? false

###

System: A549
protocol.summary: Cytotoxicity against human A549 cells assessed as induction of cell death incubated for 2 days by MTT assay
Format: functional, cell-based
condition.context: A549, 48 h
Recorded IC50 values for a group of compounds are listed next.

Please review the following examples before continuing.
C[C@H]1O[C@@H](O[C@H]2CC[C@]3(C)[C@H]4C=C[C@]56OC[C@@]7(CCC(C)(C)C[C@H]75)[C@@H](O)C[C@@]6(C)[C@]4(C)CC[C@H]3C2(C)C)[C@H](O)[C@@H](O[C@@H]2O[C@H](CO)[C@@H](O)[C@H](O)[C@H]2O)[C@H]1O = > 50 µM
CO[C@@H]1C=C2[C@@H]3CC(C)(C)CC[C@]3(CO)[C@@H](O)C[C@@]2(C)[C@]2(C)CC[C@H]3C(C)(C)[C@@H](O[C@@H]4O[C@H](C)[C@H](O)[C@H](O)[C@H]4O)CC[C@]3(C)[C@@H]12 = > 50 µM
C[C@H]1O[C@@H](O[C@H]2CC[C@@]3(C)[C@@H](CC[C@]4(C)[C@@H]3C=C[C@]35OC[C@@]6(CCC(C)(C)C[C@H]63)[C@@H](O)C[C@]54C)[C@]2(C)CO)[C@H](O)[C@@H](O[C@@H]2O[C@H](CO)[C@@H](O)[C@H](O)[C@H]2O)[C@H]1O [SAIKOSAPONIN A] = 14.5 µM

Next compound, IC50 to be filled in.
Entry `C[C@H]1O[C@@H](O[C@H]2CC[C@@]3(C)[C@@H](CC[C@]4(C)[C@@H]3C=CC3=C5CC(C)(C)CC[C@]5(CO)[C@H](O)C[C@]34C)[C@]2(C)CO)[C@H](O)[C@@H](O)[C@H]1O` has what IC50? > 50 µM
